System: HCT-15 colon
Assay: NCI tumour cell line growth inhibition, 48 h
Overview of reported TGI across a group of molecules:

molecule	TGI
CCOc1ccc(/C=C/C(=O)c2ccccc2)cc1	48 µM
O=C1C=CC(=O)c2ncccc21	5.72 µM
COC(=O)C(C)Sc1nc2cc(Cl)ccc2s1 (stereo not given)	> 100 µM
Clc1nc(Oc2ccccc2)nc(-c2cn(-c3ccccc3)c3ccccc23)n1	18 µM

Sure, the documented TGI for O=C(Nc1ccc(Cl)cc1)Nc1ccc(Cl)c(Cl)c1 is 62.5 µM

Query O=C1C=C(c2c(O)ccc3ccccc23)c2ccccc2C1=O yields TGI of 13.1 µM

###

Tested on: SF-268 CNS
Test: NCI tumour cell line growth inhibition, 48 h
Measured TGI, listed per entry.

compound	TGI
COc1cc(/C=C/c2cc(C(F)(F)F)[nH]c(=O)n2)ccc1OCc1ccccc1F	> 100 µM
COC(=O)[C@@H]1N2C(=S)N(c3ccccc3)C(=O)[C@H]2SC1(C)C	> 100 µM
CCOC(=O)C(O)(NC(C)=O)C(F)(F)F (stereo not drawn)	> 100 µM
CC(C)(C)N1Cc2ccccc2/C(=C/Sc2ccccc2)C1=O	20.2 µM
CCC(=O)c1cn(C)c(=O)c2ccccc12	> 100 µM
C=CCNC(=S)N1CC(C)C(=O)Nc2ccccc21 (stereo not drawn)	> 100 µM
Cc1ccc(O)c(C2=NNC(c3cccc(Br)c3)C2)c1 (stereo not drawn)	> 100 µM
O=C(NNC(=S)Nc1ccccc1)c1csc(NC(=S)NC2CCCCC2)n1	> 100 µM
Cc1cc(/C=C2\SC(=Nc3ccccc3)N(C3CCCC3)C2=O)c(C)n1-c1ccc(Cl)cc1	> 100 µM
CCCCN(c1ccccc1)c1ncnc2c1cnn2C	> 100 µM

Kindly note the recorded TGI for COc1cc(OC)c(/C=C/c2ccc3ccccc3[n+]2C)c(OC)c1 , which is 7.61 µM

Reported TGI ( O=C1C=C(c2c(O)ccc3ccccc23)c2ccccc2C1=O ) = 17.2 µM

Entry CN(C)CCNc1nc2ccccc2c2c1c1c(n2Cc2ccccc2)-c2ccccc2C1=O , TGI reported as 28.6 µM

###

Test system: SK-MEL-5 melanoma
Assay: NCI tumour cell line growth inhibition, 48 h
Below is a list of entries, each paired with its recorded TGI value.

// solved cases for TGI follow
molecule	tgt	TGI
Cc1cc(S(=O)(=O)Nc2nc(N)nc(N3N=CCC3C)n2)c(S)cc1Cl (centres undefined)	SK-MEL-5 melanoma	> 10 µM
Cc1ccc(C(=O)c2oc3ccc4c(C)cc(=O)oc4c3c2C)cc1	SK-MEL-5 melanoma	> 100 µM
Nc1nc(-c2cccc([N+](=O)[O-])c2)c(Br)c(=O)[nH]1	SK-MEL-5 melanoma	> 91.1 µM
COC(=O)C1(C(=O)OC)N=C(C)OC1C(C)C (centres undefined)	SK-MEL-5 melanoma	> 100 µM
CC1(C)[C@@H]2C[C@H]1c1cnc(-c3ccccn3)cc1C2[C@@H]1c2cc(-c3ccccn3)ncc2[C@@H]2C[C@H]1C2(C)C (some centres undefined)	SK-MEL-5 melanoma	> 100 µM

Kindly note: SK-MEL-5 melanoma, CC(C)=CC(C(O)c1ccccc1)S(=O)(=O)c1nccn1C (centres undefined) , TGI value reported: > 100 µM

Record CCCCNc1nc(NC(C)(C)C)nc(NC(C)(C)C)n1 ; system SK-MEL-5 melanoma; TGI = 17.7 µM

Result for COc1cc(OC)c(/C=C/c2ccc3ccccc3[n+]2C)c(OC)c1 , tested on SK-MEL-5 melanoma, TGI: 1.95 µM

Form field TGI for item Cc1cc2nc3c(=O)n(C)c(=O)nc-3n(-c3ccc(Cl)cc3)c2cc1C on SK-MEL-5 melanoma: 4.14 µM

###

System: 786-0 renal
Assay: NCI tumour cell line growth inhibition, 48 h
measured metric: TGI

Consider the worked cases shown below.
molecule	assay value
CC1(C)C(=O)N(c2ccccc2)C(=O)N1c1nc2ccccc2[nH]1	> 100 µM
O=C(O)C1CCc2ccc3ccccc3c2C1c1cccc2ccccc12 (configuration not stated)	38.2 µM
Cc1ccc(C(=O)c2oc3ccc4c(C)cc(=O)oc4c3c2C)cc1	> 100 µM
NC(N)=N/N=C(/c1nc2ccc([N+](=O)[O-])cc2[nH]c1=O)C(O)c1ccco1 (configuration not stated)	> 100 µM
CC(=O)O[C@H]1C(N(C)C(=O)c2ccccc2)CC[C@]2(C)C3CC[C@@]4(C)C(CC(O)[C@@H]4C(C)N(C)C)[C@@H]3CCC12 (some centres not stated)	> 100 µM

Tested on 786-0 renal: O=C(Nc1ccccc1C(F)(F)F)c1cccc(NC2=C(Cl)C(=O)N(Cc3ccccc3)C2=O)c1 . Observed TGI: > 40.1 µM

# value of TGI, 786-0 renal, item C/C=C/[C@H]1O[C@@](OC)([C@@H](C)[C@H](O)[C@H](C)[C@H]2OC(=O)/C(OC)=C/C(C)=C/[C@@H](C)[C@@H](O)[C@@H](C)[C@@H](O)[C@H](C)C/C(C)=C/C=C/[C@@H]2OC)CC(OC2CC(O)C(OC(N)=O)C(C)O2)[C@@H]1C (some centres not stated) = 10.4 µM

###

// reported TGI for each item listed
Tested on: HT29 colon
Assay: NCI tumour cell line growth inhibition, 48 h

Some solved entries appear below for comparison.
compound	TGI
NC(=O)c1c[se]c(C2OC(CO)C(O)C2O)n1 (stereo not drawn)	> 100 µM
COc1ccc(-c2c(C3=NCCN3)nnn2-c2ccccc2)cc1	> 100 µM
COc1cc(-c2cnn(C)c2)ccc1Nc1ncc2ccnc(N[C@@H](C)C(C)(C)C)c2n1	> 100 µM
CC1(C)C(=O)N(c2ccccc2)C(=O)N1c1nc2ccccc2[nH]1	> 100 µM
COC(=O)C(COC(=O)/C=C/c1ccc(OC(C)=O)c(OC(C)=O)c1)OC(=O)/C=C/c1ccc(OC(C)=O)c(OC(C)=O)c1 (stereo not drawn)	19.7 µM
CCCCSc1n/c(=C\c2ccc(N(C)C)cc2)c2nnnn12	> 100 µM

Proceed to the following item.
GET /value?item= NC(N)=N/N=C(/c1nc2ccc([N+](=O)[O-])cc2[nH]c1=O)C(O)c1ccco1 (stereo not drawn) &field=TGI returns > 100 µM

###

Here, each record is paired with measured log10 of TGI data.
Tested on: MOLT-4 leukemia
Assay: NCI tumour cell line growth inhibition, 48 h
Note the log scale: values are log10 of TGI expressed in µM.

Here is how some molecules turned out for log10 of TGI.
molecule	log10 of TGI
O=C(Nc1ccccc1C(F)(F)F)c1cccc(NC2=C(Cl)C(=O)N(Cc3ccccc3)C2=O)c1	1.49
CSC(=NC1=NC(C(F)(F)F)(C(F)(F)F)N=C(c2ccccc2)O1)SC	1.93
Oc1ccc(N=Nc2ccc(Cl)cc2)cc1	1.71
C=CC(=O)N1CCCC(n2nc(-c3ccc(Oc4ccccc4)cc3)c3c(N)ncnc32)C1 (centres undefined)	1.41
COc1c/c(=C2/C=c3ccccc3=N2)[nH]/c1=C/c1[nH]c(C)cc1C	0.47
CN1CCN(Cc2ccc(NC(=O)c3cncc(C#Cc4cnc(N)c5ccc(F)cc45)c3)cc2C(F)(F)F)CC1	0.79
CN1CCN(CCSC2Cc3cc(Cl)ccc3Sc3ccccc32)CC1 (centres undefined)	0.89

molecule O=C(Nc1ccccc1)c1ccc(Cl)c([N+](=O)[O-])c1 , log10 of TGI observed: 1.34

###

TGI values for the compounds below.
System: HCT-15 colon
Experiment: NCI tumour cell line growth inhibition, 48 h

// recorded TGI for N#Cc1c2c(c(N3CCOCC3)n3c1nc1ccccc13)CCCC2 : 36.2 µM

CC(C)c1ccc(Cc2cnc(NC(=O)c3cc(Br)cs3)s2)cc1 yielded TGI of > 100 µM

Value of TGI reported for the compound CCN(CC)CCC1CC/C(=C\c2ccc(OC)cc2)C1=O (centres undefined) is > 100 µM

For this compound ( Cc1nc2ccc(C(F)(F)F)cc2nc1Nc1ccc(Cl)c(Cl)c1 ), measured TGI is 18.5 µM

###

Test system: SF-268 CNS
Experiment: NCI tumour cell line growth inhibition, 48 h
measured metric: TGI

Example entries begin here.
molecule	TGI
COc1ccc(NC(=O)C2C(=O)N(c3ccc(OC)cc3)C(=O)/C2=N/O)cc1 (stereo not given)	52.7 µM
CCCC(=O)c1c(NOC2OC(COC(C)=O)C(OC(C)=O)C(OC(C)=O)C2OC(C)=O)nc(OC)n(C)c1=O (stereo not given)	> 100 µM
CC1CC(c2ccccc2)=Nc2ccccc2S1(=O)=O (stereo not given)	31.4 µM
CN(C)c1ccc(/C=C2\Oc3cc(O)ccc3C2=O)cc1	> 100 µM
COc1ccc(/C=C/c2cc(OC)c(OC)c(OC)c2)cc1NC(=O)/C=C/c1ccc(F)cc1	> 100 µM

Short answer for Cc1ccc(C(=O)c2oc3ccc4c(C)cc(=O)oc4c3c2C)cc1 : TGI was 98.8 µM

Note to self: TGI recorded for CCN(CC)CCCNc1ccc2nnn3c4ccc(O)cc4c(=O)c1c23 was 18.6 µM

// field: TGI; key: O=C(O)C1CCc2ccc3ccccc3c2C1c1cccc2ccccc12 (stereo not given) ; value = 91.7 µM
